- targetOrSystem: CALRins5 (mutant calreticulin, 5 base pair insertion, Type 2) expressed with MPL on engineered cancer cells (UniProt P27797)
- Sequence (P27797 other isoform, or with tags, fused parts or gaps mutant limits assumed): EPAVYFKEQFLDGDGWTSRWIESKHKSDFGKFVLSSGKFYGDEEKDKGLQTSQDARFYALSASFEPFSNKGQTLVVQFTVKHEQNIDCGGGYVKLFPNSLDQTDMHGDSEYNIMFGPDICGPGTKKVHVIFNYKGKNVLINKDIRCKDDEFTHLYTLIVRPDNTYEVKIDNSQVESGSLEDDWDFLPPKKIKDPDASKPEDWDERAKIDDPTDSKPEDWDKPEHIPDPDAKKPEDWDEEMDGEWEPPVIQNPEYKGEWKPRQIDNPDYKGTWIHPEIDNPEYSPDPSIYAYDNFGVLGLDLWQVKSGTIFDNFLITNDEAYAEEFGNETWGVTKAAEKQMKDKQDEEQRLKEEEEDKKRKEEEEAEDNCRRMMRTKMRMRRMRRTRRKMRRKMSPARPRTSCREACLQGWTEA
- assay: cell-based or functional assay
reportedProperty: Cytotoxicity EC50, OCI-M2 MPL CALRins5 cells

# binder, result
data = [
    ("CALRB74 (MP1001 Fab x CD3W245-LH-scFv, medium affinity) (bispecific antibody, part only; not given: CD3 scFv arm and IgG1 constant regions, V domains shown, not shown: another chain or arm of the molecule; a dimerising Fc or GST; small tags and cut ends) VL: YVMMTQTPSSVSAAVGGTVTINCQASQSLYNNNNLAWFQQKPGQPPKRLIYPASTLASGVSSRFKGSGSGTQFTLTISDVQSDDAATYFCLGEFSCSSADCYAFGGGTEVVVK VH: QEQLKESGGRLVTPGTPLTLTCAVSGFSLDIYGMSWVRQAPGKGLEWIGIIYIEGITYYANWAKGRFTISKTSSTTLELKMTSLTTEDTAMYFCVAGVGRIWGPGTLVTVSS", "0.0322 µg/mL"),
    ("CALRB119 (MP1016 Fab x CD3W245-HL-scFv, high affinity) (bispecific antibody, part only; not given: anti-CD3 scFv arm, constant regions, V domains shown, not shown: another chain or arm of the molecule; a dimerising Fc or GST; small tags and cut ends) VL: DPVLTQTESPVSAAVGGTVTINCQASQSVYDDNNLAWYQQKPGQPPKRLIYPASTLASGVSSRFSGSGSGSQFTLTISDVQSDDAATYYCQGEFSCTSADCVAFGGGTEVVVK VH: QEQLKESGGRLVTPGTPLTLTCTASGFSLSNYYMSWVRQAPGKGLEWIGGISSRAGTWYASWAKGRFTISGTSTTMDLKITSPTTEDTATYFCARGLKIWGPGTLVTVSS", "0.0225 µg/mL"),
]
